biological target: binding partner (antigen) of C5A (XPA23); experiment: Biacore, K-off, fold vs original
fold difference in affinity vs original values by entry
Recorded endpoint: fold difference in affinity vs original

1. C5A (XPA23) VH Y101F (antibody, V domains shown) VH: EVQLLESGGGLVQPGGSLRLSCAASGFTFSKYFMFWVRQAPGKGLEWVSVISPSGGMTRYADSVKGRFTISRDNSKNTLYLQMNSLRAEDTAVYYCARVGFGGNSDYWGQGTLVTVSS VL: DIQMTQSPSSVSASVGDRLTIICRASQDINRWLAWYQQTPGNAPKLLIHSATSLQSGVPSRFSGSGSGTDFTLTINSLQPEDFATYYCQQADSFPLTFGGGTKVEIK
0.85 fold
2. C5A (XPA23) VH T58L (antibody, V domains shown) VH: EVQLLESGGGLVQPGGSLRLSCAASGFTFSKYFMFWVRQAPGKGLEWVSVISPSGGMLRYADSVKGRFTISRDNSKNTLYLQMNSLRAEDTAVYYCARVGYGGNSDYWGQGTLVTVSS VL: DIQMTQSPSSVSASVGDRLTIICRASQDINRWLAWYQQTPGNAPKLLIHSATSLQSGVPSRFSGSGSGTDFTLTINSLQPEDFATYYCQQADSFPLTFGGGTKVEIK
0.95 fold
3. C5A (XPA23) VH T58A (antibody, V domains shown) VH: EVQLLESGGGLVQPGGSLRLSCAASGFTFSKYFMFWVRQAPGKGLEWVSVISPSGGMARYADSVKGRFTISRDNSKNTLYLQMNSLRAEDTAVYYCARVGYGGNSDYWGQGTLVTVSS VL: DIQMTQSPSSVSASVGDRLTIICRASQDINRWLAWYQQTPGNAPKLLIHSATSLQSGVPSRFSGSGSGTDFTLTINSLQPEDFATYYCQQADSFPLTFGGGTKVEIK
0.14 fold
